- protocolDescription: MRT (0 to t) in ICR mouse at 1 mg/kg, iv measured upto 24 hrs by LC-MS/MS analysis
- Format: ADME, organism-based
- appliedConditions: in vivo
resultType: MRT last at 24 h (h)
All answers are understood in h, so give the number only.

(Q) Please indicate MRT last at 24 h recorded for CC(C)(O)c1csc(S(=O)(=O)NC(=O)Nc2c(-c3cccc(Cl)c3Cl)ccc3c2CCC3)c1
(A) 1.75

----------
- protocolDescription: MRT (0 to t) in ICR mouse at 10 mg/kg, po measured upto 24 hrs by LC-MS/MS analysis
- Assay type: ADME, organism-based
- appliedConditions: in vivo
resultType: MRT last at 24 h (h)
All answers are understood in h, so give the number only.

(Q) Please indicate MRT last at 24 h recorded for CC(C)(O)c1csc(S(=O)(=O)NC(=O)Nc2c(-c3cccc(Cl)c3Cl)ccc3c2CCC3)c1
(A) 1.73
